Experimental details: Intrinsic clearance in Beagle dog at 0.25 mg/kg, iv or 0.5 mg/kg, po
Assay type: ADME, organism-based, Canis lupus familiaris
Condition parameters: in vivo
Endpoint label: CL (mL/min/kg)

Some entries whose results are on file:
>>> experimental_value("CCn1c(-c2cnc(C)nc2)nc2c(O[C@H]3CCN(C(=O)c4cocn4)C3)ncnc21")
16
>>> experimental_value("CCn1c(-c2ccc(C(F)(F)F)nc2)nc2c(O[C@H]3CCN(C(=O)c4cocn4)C3)ncnc21")
19
>>> experimental_value("CCn1c(-c2cnc(C)nc2)nc2c(N[C@H]3CCN(C(=O)[C@H]4C[C@@H](OC)C4)C3)ncnc21")
13
>>> experimental_value("CCn1c(-c2cnc(C)nc2)nc2c(N[C@H]3CCN(C(=O)C4CCC4)C3)ncnc21")
30
>>> experimental_value("CCn1c(-c2ccc(C(F)(F)F)nc2)nc2c(O[C@H]3CCN(C(=O)N4CC(OC)C4)C3)ncnc21")
46

(P) CCn1c(-c2ccc(C(F)(F)F)nc2)nc2c(O[C@H]3CCN(C(=O)C4CCOC4)C3)ncnc21 (stereo partly specified)
(Q) CCn1c(-c2ccc(C(F)(F)F)nc2)nc2c(O[C@H]3CCN(C(=O)[C@H]4C[C@@H](OC)C4)C3)ncnc21
Which entry shows the lesser value of CL here, P or Q ? Return value: the label identifying the chosen record. P
(P: 6 mL/min/kg, Q: 18 mL/min/kg)
